Sourced from the supplement of paper PMC10567573

B1: KCNA3 (parent)
chain: YQSGGRIRRPVNVPIDIFSEEIRF

- Variants of: B1
- protocolNotes: protein stability index of a GFP-peptide fusion (GPS, HEK-293T) (PSI 1-6); higher = more stable;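 also: lentivirally expressed fusions sorted by FACS into six bins by GFP to DsRed ratio, PSI derived from sequencing read proportions per bin multiplied by bin number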
- condition: c terminus: a fixed tail appended
# protein stability index >= 2 gives met, anything below gives not met

See these solved cases before continuing.
YQSGGRIRRPVNVPIDIFTEEIRF = met
YQSGGRIRRPVNVCIDIFSEEIRF = not met
YQSGGRIRRPVNVPIDIFSAEIRF = met
YQSGGRIRRPYNVPIDIFSEEIRF = met
YQSGGRIRRPVNVPIDIFSEEITF = not met
YQSGGRIRRPVNVVIDIFSEEIRF = not met
YQSGGRIRRPVNVPIDIFSEYIRF = met
YQSGGRIRRPVNVPSDIFSEEIRF = met
YQSGGRIRRPVNVPIDIFSEEIRG = not met
YQSFGRIRRPVNVPIDIFSEEIRF = not met

Could you tell me if the measured protein stability index of YQSGGAIRRPVNVPIDIFSEEIRF reaches 2 or more?
not met

Here is the next variant: YQSNGRIRRPVNVPIDIFSEEIRF
not met

Here is the next variant: YQSGGRIRRPVNVPIDICSEEIRF
met

Here is the next variant: YQSGGRIRRPVNVPIDIFFEEIRF
not met

Here is the next variant: YQSGGRISRPVNVPIDIFSEEIRF
not met
